assay: yeast display, Sf9 membrane polyspecificity reagent, FACS + sequencing; frameworks hold sequencing errors
REPORTED_PROPERTY: polyreactivity (PSR sort gate)

The examples below pair each entry with its known result.
* QVQLVESGGGLVQAGGSLRLSCAASGSTLYSYAMGWSRQAPGKEREFVAAITSDDGSTYYADSVKGRFTISRDNAKNTVYLQMNSLKPEDTAVYYCATAGSVEYNYWGQGTQVTVSS | low polyreactivity
* QVQLVESGGGLVQAGGSLRLSCAASVSIFYHYAMGWYRQAPGKESELVAAIDRTGGSTYYADSVKGRFTISRDNAKNTVYLQMNSLKPEDTAVYYCDADWDYADYYGFQYDYWGQGTQVTVSS | low polyreactivity
* QVQLVESGGGLVQAGCSLRLSCAASGFTFAKYAMGRYRQAPGKERELVAAITYRDGSTYYADSVKGRFTISRDYAKNTVYLQMNSLKPEDSAVYYCAAVASYVRYGYWGQGTQVTVSS | high polyreactivity
* QVQLVESGGGLVQAGGSLRISCAASGYTSIIYAMGWYRQAPGTERECVASIRGRSGSTYYADSVKGRFTISRDNAKNTVYLQMNSLKPEDTAVYYCAARARYVNWQGFDYWGQGTQVTVSS | high polyreactivity
* QVQLVESGGGLVQAGGSLRLSCAASGRTLGRNAMGWYRQAPGKERELVASISSGGSTNYADSVKGRFTISRDNAKNTVYLQMNSLKPEDTAVYYCAAGYFRDYWGQGTQVTVSS | high polyreactivity

Go through the list and state polyreactivity (PSR sort gate) for each entry.
1. QVHLVESGGGLVKAGGSLRLSCAASGISFGSNVMGLYRQAPGKERELVAAINYGGGSTYYADSVKGRFTISRDNAKNTVYLQMNSLKPEDTAVYYCAARGSRVYRYDYWGQGTQVTVSS
2. QVQLVESGGGLVQAGGSLRLSCAASGRTFSVYTMGWYRQAPGKERELVAVISSGGGTDYADSVKGRFTISRDNAKNTVYLQMNSLKPEDTAVYYCAAELRYYLYDVVYIVTYDYWGQGTQVTVSS
3. QVQLVESGGGLVQAGGSLRLSCAASGFIFLRYVMGWYRQAPGKERELVAVITGTGVRTYADSVKGRFTISRDNAKNTVYLQMTSLKPEDTAVYYCAVVSSSREVEVLDFDYWGLGTQVTVSS
4. QVQLVESGGGLVQAGGSLRLSCAASGSTLKYNAMGWYRQAPGKEREFVASITLSAGRTYYADSVKGRFTISRDNAKNTVYLQMNSLKPEDTAVYYCAARRYFSYRYDYWGQGTQVTVSS
5. HVQLVESGGGLVQAGGSLRLSCAASGRTFIYNAMGWYRQAPGKEREFVAANTWSGATTRYADSVKGRFTISRDNAKNTVYLEMNSLKPEDTAVYYCAKGGFYYYGWRSSMDYWGQGTQVTVSS

1: low polyreactivity; 2: low polyreactivity; 3: low polyreactivity; 4: high polyreactivity; 5: high polyreactivity

Go through the list and state polyreactivity (PSR sort gate) for each entry.
1. QVQLVESGGGLVQAGGSLRLSCAASGYIFYAYAMAWYRHAPGKESELVAAITDNGVSTFYADSVKGRFTISRDNAKNTVYLHMNSLIPEDTAVYYCATSSTHSRGDEYWGQGTQVAVSS
2. QVQLVESGGGLVQAGGSLRLSCAASGRIFGEYAMGWYRQAPGKERELVAAISGGGSTYYADSVKGRFTISRDNAKNTVYLQMNSLKPEETAVYYCAVYSVYHEYDYWGHGTQVTVSS
3. QVQLVESGGGLVQAGVSLRLSCAASGFTFQAYAMGWYRQAPGKERELVAAIRSRGDSTYYADSVKGRFTISRDNSKNTVYLQMNSLKPEDTAVYYCNVLGYSYWGQGTQVTVSS
4. QVQLVESGGGLVQAGGSLRLSCAASGRIFSKYAMGWYRQAPGKERELVAAITSGGRTYYADSVKGRFTISRDNAKNTVYLQMNSLIPEDTAVYYCAARYVQVVRKFGYWGQGTQVTVSS
5. QVQLVESGGGLVQAGGSLRLSCAASGRTFYRKAMGWYIQAPGKEREFVAVISVSGGSTYYADSVKGRFTISRDNAKITVYLQMNSLKPEDTAVYYCAKRGPVRKTAYDYWGQGTQVTVSS
6. QVQLVESGGGLVQAGGSLRLSCAASGRIFVWNAMGWYRQAPGKERELVAAITSSGGNTYYADSVKGRFTISRDNAKNNVYLQMNSLKQEDTAVYYCAAAGGAWARYRFNYWGQGTQVTVSS

["low polyreactivity", "low polyreactivity", "high polyreactivity", "high polyreactivity", "low polyreactivity", "high polyreactivity"]

Go through the list and state polyreactivity (PSR sort gate) for each entry.
1. QVQLVESGGGLVQAGGSLRLSCAASGSIFSDYAMGWYRQAPGKERELVAASTQSGGSTYADSLKGRFSISRDNAKNTVYLQMNSLKPEDTAVYYCADRHDKRRQYYVGQSAFDYWGQGTQVTVSS
2. QVQLVESGGGLVQAGGSLRLSCAASGRIFRWYGMGWYRQAPRKERELFAAISGRGGSTYYADSVKGRFTISRDIAKNTVYLQMNSLKPEDSGVYYCKKDPYYIYRPGSGQGYAFNYWGQGTQVTVSS
3. QVQIVESGGGLVQAGGILRLSCAASGNTFGYYAMGWYRQAPGKEWELVAAISRGGGSTYYADSVKGRFTISRDNAKNTVYLQMNRLKPEDTAVYYCARRYRLSTSWSYRVGYWGQGTQVTVSS
4. QVQLVESVVGLVQAGGSLPISCAASGSTFSANDMVWYSQPHGTERELVAAIDTGGTTYYADSVKGRFTISRDNAKNTVYLQMNSLKPEYTAVYYCNATIWYRDYGYWVQGTQVTVSS
5. QVQLVESGGGLVQAGGSLRLSCAASGSIFGRYGMVWSRPAPGKERELVAAITSATRTNYADSVKGRFTISRDNAKNTVYLQMNSLKPEDTAVYYCAKQTYRRLPQTPYNYWGQGSQVTVSS

["low polyreactivity", "high polyreactivity", "high polyreactivity", "low polyreactivity", "low polyreactivity"]
